Each recorded value in this set is attributed to the NIST ThermoML archive (doi:10.1021/je600573w).

Each entry below carries its recorded molar heat capacity at constant pressure.
# assayMethodText: molar heat capacity at constant pressure
# conditionDescription: 329.15 K; 101.33 kPa; Liquid; Small sample (50 mg) DSC
propertyLabel: molar heat capacity at constant pressure (J/K/mol)

| recordSmiles | readoutNumber |
| --- | --- |
| Clc1cccc(Br)c1 | 180.68 |
| Clc1ccc(Cl)c(Cl)c1Cl | 225.49 |
| Clc1ccc(Cl)c(Cl)c1 | 200.77 |
| Clc1cccc(Cl)c1Cl | 201.8 |
| Brc1ccccc1 | 161.53 |
| Brc1ccccc1Br | 186.01 |
| Clc1ccc(Cl)cc1 | 177.53 |
| Clc1cccc(Cl)c1 | 177.26 |
| Clc1ccccc1Br | 181.47 |
| Clc1ccccc1Cl | 177.73 |
| Clc1ccccc1 | 158.36 |
| Brc1cccc(Br)c1 | 184.98 |

* * *

Each entry below carries its recorded molar heat capacity at constant pressure.
# assayMethodText: molar heat capacity at constant pressure
# conditionDescription: 309.15 K; 101.33 kPa; Liquid; Small sample (50 mg) DSC
± gives the expanded uncertainty stated by the source.
propertyLabel: molar heat capacity at constant pressure

| molecule | propertyLabel | result |
| --- | --- | --- |
| Clc1ccccc1Br [1-bromo-2-chlorobenzene] | molar heat capacity at constant pressure | 177.19 ± 2.8 J/K/mol |
| Brc1ccccc1Br [1,2-dibromobenzene] | molar heat capacity at constant pressure | 181.99 ± 2.8 J/K/mol |
| Clc1cccc(Br)c1 [1-bromo-3-chlorobenzene] | molar heat capacity at constant pressure | 176.25 ± 2.7 J/K/mol |
| Clc1ccccc1Cl [1,2-dichlorobenzene] | molar heat capacity at constant pressure | 173.09 ± 2.7 J/K/mol |
| Clc1ccc(Cl)c(Cl)c1 [1,2,4-trichlorobenzene] | molar heat capacity at constant pressure | 196.99 ± 3 J/K/mol |
| Clc1ccccc1 [chlorobenzene] | molar heat capacity at constant pressure | 153.5 ± 2.4 J/K/mol |

* * *

Each entry below carries its recorded molar heat capacity at constant pressure.
# assayMethodText: molar heat capacity at constant pressure
# conditionDescription: 315.15 K; 101.33 kPa; Liquid; Small sample (50 mg) DSC
propertyLabel: molar heat capacity at constant pressure (J/K/mol)

| recordSmiles | propertyLabel | measurementUnits | readoutNumber |
| --- | --- | --- | --- |
| Brc1ccccc1Br | molar heat capacity at constant pressure | J/K/mol | 183.17 |
| Clc1ccc(Cl)c(Cl)c1 | molar heat capacity at constant pressure | J/K/mol | 198.09 |
| Clc1cccc(Br)c1 | molar heat capacity at constant pressure | J/K/mol | 177.56 |
| Clc1ccccc1 | molar heat capacity at constant pressure | J/K/mol | 154.93 |
| Brc1ccccc1 | molar heat capacity at constant pressure | J/K/mol | 158.28 |
| Clc1ccccc1Br | molar heat capacity at constant pressure | J/K/mol | 178.45 |
| Clc1cccc(Cl)c1 | molar heat capacity at constant pressure | J/K/mol | 173.95 |
| Clc1ccccc1Cl | molar heat capacity at constant pressure | J/K/mol | 174.46 |
| Brc1cccc(Br)c1 | molar heat capacity at constant pressure | J/K/mol | 182.01 |

* * *

Each entry below carries its recorded molar heat capacity at constant pressure.
# assayMethodText: molar heat capacity at constant pressure
# conditionDescription: 333.15 K; 101.33 kPa; Liquid; Small sample (50 mg) DSC
propertyLabel: molar heat capacity at constant pressure (J/K/mol)

| recordSmiles | readoutNumber |
| --- | --- |
| Clc1cccc(Cl)c1 | 178.24 |
| Clc1cccc(Br)c1 | 181.58 |
| Clc1ccccc1Br | 182.33 |
| Clc1ccc(Cl)c(Cl)c1Cl | 226.14 |
| Brc1cccc(Br)c1 | 185.83 |
| Clc1ccc(Cl)cc1 | 178.43 |
| Clc1cccc(Cl)c1Cl | 202.52 |
| Clc1ccc(Cl)c(Cl)c1 | 201.55 |
| Brc1ccccc1Br | 186.82 |
| Clc1ccccc1 | 159.35 |
| Brc1ccccc1 | 162.48 |
| Clc1ccccc1Cl | 178.67 |

* * *

# assayMethodText: molar heat capacity at constant pressure
# conditionDescription: 317.15 K; 101.33 kPa; Liquid; Small sample (50 mg) DSC

| recordSmiles | molar heat capacity at constant pressure (J/K/mol) |
| --- | --- |
| Clc1ccccc1Br | 178.88 |
| Clc1ccccc1 | 155.41 |
| Brc1ccccc1Br | 183.57 |
| Clc1ccccc1Cl | 174.92 |
| Brc1cccc(Br)c1 | 182.43 |
| Clc1ccc(Cl)c(Cl)c1 | 198.47 |
| Brc1ccccc1 | 158.74 |
| Clc1cccc(Cl)c1 | 174.41 |
| Clc1cccc(Br)c1 | 178 |

* * *

# assayMethodText: molar heat capacity at constant pressure
# conditionDescription: 349.15 K; 101.33 kPa; Liquid; Small sample (50 mg) DSC
propertyLabel: molar heat capacity at constant pressure (J/K/mol)

| recordSmiles | propertyLabel | readoutNumber |
| --- | --- | --- |
| Clc1ccc(Cl)c(Cl)c1 | molar heat capacity at constant pressure | 204.61 |
| Clc1ccc(Cl)cc1 | molar heat capacity at constant pressure | 182.22 |
| Clc1ccccc1 | molar heat capacity at constant pressure | 163.34 |
| Clc1cccc(Cl)c1 | molar heat capacity at constant pressure | 182.2 |
| Clc1cccc(Br)c1 | molar heat capacity at constant pressure | 185.1 |
| Clc1ccc(Cl)c(Cl)c1Cl | molar heat capacity at constant pressure | 228.81 |
| Clc1cccc(Cl)c1Cl | molar heat capacity at constant pressure | 205.52 |
| Clc1ccccc1Br | molar heat capacity at constant pressure | 185.72 |
| Brc1ccccc1Br | molar heat capacity at constant pressure | 189.96 |
| Clc1ccccc1Cl | molar heat capacity at constant pressure | 182.38 |
| Brc1cccc(Br)c1 | molar heat capacity at constant pressure | 189.09 |
| Brc1ccccc1 | molar heat capacity at constant pressure | 166.23 |

* * *

# assayMethodText: molar heat capacity at constant pressure
# conditionDescription: 347.15 K; 101.33 kPa; Liquid; Small sample (50 mg) DSC
propertyLabel: molar heat capacity at constant pressure (J/K/mol)

| recordSmiles | readoutNumber |
| --- | --- |
| Clc1ccc(Cl)c(Cl)c1 | 204.23 |
| Clc1cccc(Br)c1 | 184.67 |
| Clc1ccccc1 | 162.85 |
| Clc1cccc(Cl)c1Cl | 205.14 |
| Brc1ccccc1 | 165.76 |
| Clc1ccccc1Br | 185.31 |
| Clc1ccc(Cl)cc1 | 181.73 |
| Clc1ccc(Cl)c(Cl)c1Cl | 228.47 |
| Brc1ccccc1Br | 189.58 |
| Brc1cccc(Br)c1 | 188.7 |
| Clc1cccc(Cl)c1 | 181.7 |
| Clc1ccccc1Cl | 181.92 |

* * *

# assayMethodText: molar heat capacity at constant pressure
# conditionDescription: 301.15 K; 101.33 kPa; Liquid; Small sample (50 mg) DSC
propertyLabel: molar heat capacity at constant pressure (J/K/mol)

| compound | propertyLabel | measurementUnits | readoutNumber |
| --- | --- | --- | --- |
| Clc1ccccc1 [chlorobenzene] | molar heat capacity at constant pressure | J/K/mol | 151.64 |
| Clc1cccc(Cl)c1 [1,3-dichlorobenzene] | molar heat capacity at constant pressure | J/K/mol | 170.82 |
| Brc1ccccc1 [bromobenzene] | molar heat capacity at constant pressure | J/K/mol | 155.19 |
| Brc1cccc(Br)c1 [1,3-dibromobenzene] | molar heat capacity at constant pressure | J/K/mol | 179.19 |
| Clc1ccccc1Cl [1,2-dichlorobenzene] | molar heat capacity at constant pressure | J/K/mol | 171.32 |
| Clc1ccccc1Br [1-bromo-2-chlorobenzene] | molar heat capacity at constant pressure | J/K/mol | 175.56 |
| Brc1ccccc1Br [1,2-dibromobenzene] | molar heat capacity at constant pressure | J/K/mol | 180.48 |
| Clc1cccc(Br)c1 [1-bromo-3-chlorobenzene] | molar heat capacity at constant pressure | J/K/mol | 174.56 |
| Clc1ccc(Cl)c(Cl)c1 [1,2,4-trichlorobenzene] | molar heat capacity at constant pressure | J/K/mol | 195.57 |

* * *

# assayMethodText: molar heat capacity at constant pressure
# conditionDescription: 343.15 K; 101.33 kPa; Liquid; Small sample (50 mg) DSC
± gives the expanded uncertainty stated by the source.
Each entry below carries its recorded molar heat capacity at constant pressure.

| recordSmiles | molar heat capacity at constant pressure |
| --- | --- |
| Clc1cccc(Br)c1 | 183.8 ± 2.9 J/K/mol |
| Clc1ccc(Cl)c(Cl)c1Cl | 227.8 ± 3.5 J/K/mol |
| Clc1ccccc1Cl | 181 ± 2.8 J/K/mol |
| Clc1ccccc1 | 161.85 ± 2.5 J/K/mol |
| Brc1ccccc1 | 164.83 ± 2.5 J/K/mol |
| Clc1ccc(Cl)cc1 | 180.76 ± 2.8 J/K/mol |
